system: Hyperlipemia Model of SD Rat; test: Screening in the hyperlipemia model of SD rat (fat emulsion by gavage; serum lipids); assay type: in vivo; conditions: hyperlipemia SD rats, 40 mg/kg, dosed 21 days, X ± SD
Observable: HDL-C Concentration (serum high-density lipoprotein) (mmol/L)
// return numeric value only (unit: mmol/L, not printed)

Use the examples below as a reference point.
>  <Molecule>
CCC(CC)(CCCOc1cc(C)cc(C)c1)C(=O)NCC(=O)c1cccc(O)c1 [Compound 13]

>  <Observed>
1.895

$$$$
>  <Molecule>
Cc1cc(C(=O)CCNC(=O)C(C)(CCCOc2cc(Cl)ccc2C)C(C)C)ccc1O (stereo not shown) [Compound 15]

>  <Observed>
1.89

$$$$
>  <Molecule>
Cc1ccc(C)c(OCCCC(C)(C)C(=O)NCC(=O)c2ccc(OC(=O)C(C)(C)CCCOc3cc(C)ccc3C)cc2)c1 [Compound 06]

>  <Observed>
1.49

$$$$
>  <Molecule>
CC(C)(Oc1ccc(C2CC2(Cl)Cl)cc1)C(=O)NCC(=O)c1ccc(O)cc1 (stereo not shown) [Compound 07]

>  <Observed>
1.74

$$$$
>  <Molecule>
CC(C)(Oc1ccc(C2CC2(Cl)Cl)cc1)C(=O)NCC(=O)c1ccc(OC(=O)C(C)(C)Oc2ccc(C3CC3(Cl)Cl)cc2)cc1 (stereo not shown) [Compound 08]

>  <Observed>
2.12

$$$$
>  <Molecule>
CC(C)(Oc1ccc(Cl)cc1)C(=O)NCC(=O)c1ccc(OC(=O)C(C)(C)Oc2ccc(Cl)cc2)cc1 [Compound 10]

>  <Observed>
2.66

$$$$

Turning to the following molecule.
Note to self: HDL-C Concentration (serum high-density lipoprotein) recorded for Cc1ccc(C)c(OCCCC(C)(C)C(=O)NCC(=O)c2cc(O)cc(O)c2)c1 [Compound 19] was 1.36
